assayed.system: HIV protease (Human immunodeficiency virus type 1 group M subtype B, UniProt P04585)
Construct: and purified protease
assay.overview: HIV Protease Assay
Assay type: biochemical
measurement.parameters: pH 5.5, 10 μM inhibitor, 4% DMSO, 450 μM substrate, pH 5.5, 30 minutes at 37° C., RP-HPLC; read-out: HIV Protease % Inhibition at 10 μM
Form field: inhibition at 10 µM (one value per entry).
State just the number; it will be interpreted in %.

Worked examples, 5 molecules total:
Q: What inhibition at 10 µM value was documented for this molecule, CC(C)C(NC(=O)OCc1ccccc1)C(=O)NC(Cc1ccccc1)C(O)CNCC(O)C(Cc1ccccc1)NC(=O)C(NC(=O)OCc1ccccc1)C(C)C (centres unmarked) ?
A: 94

Q: Can you share its inhibition at 10 µM? I mean this molecule: COc1ccccc1C[C@H](NC(=O)OC(C)(C)C)[C@H](O)CNC[C@@H](O)[C@H](Cc1ccccc1)NC(=O)OC(C)(C)C
A: 98

Q: Entry CC(C)(C)OC(=O)N[C@@H](Cc1ccccc1)[C@H](O)CNC[C@@H](O)[C@H](Cc1ccccc1)NC(=O)OC1(C)CCOCC1 has what inhibition at 10 µM?
A: 89

Q: Which inhibition at 10 µM value is on record for CC(C)(C)OC(=O)N[C@@H](Cc1ccccc1)[C@H](O)CNC[C@@H](O)[C@H](Cc1ccccc1)NC(=O)[C@@H](NC(=O)OCc1ncc(-c2ccccc2)o1)C(C)(C)C ?
A: 99

Q: Returns the measured inhibition at 10 µM for the input molecule. Input: CC(C)[C@H](NC(=O)OCc1ccccc1)C(=O)N[C@@H](Cc1ccccc1)[C@H](O)CNC[C@@H](O)[C@H](Cc1ccccc1)NC(=O)[C@H](CC(N)=O)NC(=O)OC(C)(C)C
A: 73

Further cases:
Q: Look at this molecule and give its reported inhibition at 10 µM. C=Cc1ccccc1C[C@H](NC(=O)OC(C)(C)C)[C@H](O)CNC[C@@H](O)[C@H](Cc1ccccc1)NC(=O)OC(C)(C)C
A: 96

Q: For the molecule shown here, COCC(C)(C)OC(=O)N[C@@H](Cc1ccccc1)[C@H](O)CNC[C@@H](O)[C@H](Cc1ccccc1)NC(=O)OC(C)(C)C , give the reported inhibition at 10 µM.
A: 61

Q: # lookup: inhibition at 10 µM of CC(C)[C@H](NC(=O)CCC(=O)Nc1ccccc1)C(=O)N[C@@H](Cc1ccccc1)[C@H](O)CNC[C@@H](O)[C@H](Cc1ccccc1)NC(=O)OC(C)(C)C (relative stereo)
A: 99

Q: Field request: inhibition at 10 µM | item: CC(C)(C)OC(=O)N[C@@H](Cc1ccccc1)[C@H](O)CNC[C@@H](O)[C@H](Cc1ccccc1)NC(=O)C(C)(C)CO
A: 54

Q: Consider the molecule shown here: CC(C)(C)OC(=O)N1CCC[C@H]1[C@H](O)CNC[C@H](O)[C@@H]1CCCN1C(=O)OC(C)(C)C What is its recorded inhibition at 10 µM?
A: 2

Q: Quick one: inhibition at 10 µM for CC(C)(C)OC(=O)N[C@@H](Cc1ccccc1)[C@H](O)CNC[C@@H](O)[C@H](Cc1ccccc1)NC(=O)[C@@H](NC(=O)OCc1cc2ncccc2o1)C(C)(C)C ?
A: 100

###

assayed.system: HIV protease (Human immunodeficiency virus type 1 group M subtype B)
Construct: and purified protease
assay.overview: HIV Protease Assay
Format: biochemical
measurement.parameters: pH 5.5, 10 μM inhibitor, 4% DMSO, 450 μM substrate, pH 5.5, 30 minutes at 37° C., RP-HPLC; read-out: HIV Protease % Inhibition at 10 μM
value.kind: inhibition at 10 µM (%)
The reply should contain only the number, in %.

Q: Which measured inhibition at 10 µM belongs to CC(C)(C)OC(=O)N[C@@H](Cc1ccccc1)[C@H](O)CNC[C@@H](O)[C@H](Cc1ccccc1)NC(=O)C(C)(O)C(F)(F)F (single isomer, unassigned; isomer a) [Compound 293] , tested on HIV protease (Human immunodeficiency virus type 1 group M subtype B)?
A: 99

Q: Give inhibition at 10 µM (HIV protease (Human immunodeficiency virus type 1 group M subtype B)) of the following compound: CC(C)[C@H](NC(=O)OC(C)(C)C)C(=O)N[C@@H](Cc1ccccc1)[C@H](O)CNC[C@@H](O)[C@H](Cc1ccccc1)NC(=O)[C@@H](NC(=O)OC(C)(C)C)C(C)C [Compound 34]
A: 20

Q: Request: inhibition at 10 µM, test system HIV protease (Human immunodeficiency virus type 1 group M subtype B), entry CC(C)[C@H](NC(=O)CCc1nc2ccccc2[nH]1)C(=O)N[C@@H](Cc1ccccc1)[C@H](O)CNC[C@@H](O)[C@H](Cc1ccccc1)NC(=O)OC(C)(C)C [Compound 103]
A: 98

Q: Item: CC(C)(C)OC(=O)NC[C@H](O)[C@@H](Cc1ccccc1)NC[C@@H](O)[C@H](Cc1ccccc1)NC(=O)OC(C)(C)C [Compound 187] Test system: HIV protease (Human immunodeficiency virus type 1 group M subtype B) Read-out: inhibition at 10 µM Value: ?
A: 28

API: the following record is the query input.
Q: Quick check: inhibition at 10 µM on HIV protease (Human immunodeficiency virus type 1 group M subtype B), item CC(C)(C)OC(=O)N[C@@H](Cc1ccccc1)[C@H](O)CNC[C@@H](O)[C@H](Cc1ccc(OCc2ccccc2)cc1)NC(=O)OCc1ccccc1 [Compound 17] ?
A: 84

###

assayed.system: HIV protease (Human immunodeficiency virus type 1 group M subtype B, UniProt P04585)
Construct: and purified protease
assay.overview: HIV Protease Assay
Type: biochemical
measurement.parameters: pH 5.5, 10 μM inhibitor, 4% DMSO, 450 μM substrate, pH 5.5, 30 minutes at 37° C., RP-HPLC; read-out: HIV Protease % Inhibition at 10 μM
In this section we review reported inhibition at 10 µM values for a set of compounds.
Give the quantity in %, number only.

Worked cases, inhibition at 10 µM given:
Q: Which measured inhibition at 10 µM value corresponds to CC(C)[C@H](NC(=O)OCCO)C(=O)N[C@@H](Cc1ccccc1)[C@H](O)CNC[C@@H](O)[C@H](Cc1ccccc1)NC(=O)OC(C)(C)C (relative stereo) [Compound 218] ?
A: 96

Q: Please give the measured inhibition at 10 µM for this compound: CC(C)(C)OC(=O)N[C@@H](Cc1ccccc1)[C@H](O)CNC[C@@H](O)[C@H](Cc1ccccc1)NC(=O)C(=NO)C(C)(C)C [Compound 295]
A: 82

Please find the next compound below.
Q: Sample CC(C)[C@H](NC(=O)OCc1nc2ccccc2o1)C(=O)N[C@@H](Cc1ccc(O)cc1)[C@H](O)CNC[C@@H](O)[C@H](Cc1ccccc1)NC(=O)OC(C)(C)C (relative stereo) [Compound 288] — what was its inhibition at 10 µM?
A: 100

###

assayed.system: HIV protease (Human immunodeficiency virus type 1 group M subtype B, UniProt P04585)
Construct: and purified protease
assay.overview: HIV Protease Assay
Assay type: biochemical
measurement.parameters: pH 5.5, 10 μM inhibitor, 4% DMSO, 450 μM substrate, pH 5.5, 30 minutes at 37° C., RP-HPLC; read-out: HIV Protease % Inhibition at 10 μM
inhibition at 10 µM listing for selected compounds.
Reply with a number, then the unit it belongs to.

Look over these answered cases.
Q: What inhibition at 10 µM value was documented for this compound, CC(C)(C)OC(=O)N[C@@H](Cc1ccccc1)[C@H](O)CNC[C@@H](O)[C@H](Cc1ccccc1)NC(=O)OC(C)(C)C#CCCc1ccccc1 [Compound 155] ?
A: 95%

Q: Look up inhibition at 10 µM for this compound: CC(C)(C)OC(=O)N1Cc2ccccc2CC1C(O)CNCC(O)C1Cc2ccccc2CN1C(=O)OC(C)(C)C (centres unmarked) [Compound 11]
A: 0%

Q: Quick check: inhibition at 10 µM of Cc1ccc(N(C)CCOc2ccc(C[C@H](NC(=O)OC(C)(C)C)[C@H](O)CNC[C@@H](O)[C@H](Cc3ccccc3)NC(=O)OC(C)(C)C)cc2)cc1 [Compound 217] ?
A: 100%

Q: Requested field: inhibition at 10 µM. Item: CC(C)[C@H](NC(=O)CC(N)c1ccccc1)C(=O)N[C@@H](Cc1ccccc1)[C@H](O)CNC[C@@H](O)[C@H](Cc1ccccc1)NC(=O)OC(C)(C)C (some centres unmarked) [Compound 86]
A: 78%

# context switch: different compound, same inhibition at 10 µM
Q: // returns reported inhibition at 10 µM for input CC(C)[C@H](NC(=O)OCc1nc2ccccc2[nH]1)C(=O)N[C@@H](Cc1ccccc1)[C@H](O)CNC[C@@H](O)[C@H](Cc1ccccc1)NC(=O)OC(C)(C)C [Compound 93]
A: 100%

###

assayed.system: HIV protease (Human immunodeficiency virus type 1 group M subtype B, UniProt P04585)
Construct: and purified protease
assay.overview: HIV Protease Assay
Format: biochemical
measurement.parameters: pH 5.5, 10 μM inhibitor, 4% DMSO, 450 μM substrate, pH 5.5, 30 minutes at 37° C., RP-HPLC; read-out: HIV Protease % Inhibition at 10 μM
value.kind: inhibition at 10 µM (%)
// note: answer is a bare numeric in %

Recorded inhibition at 10 µM, per entry:
Q: Find the measured inhibition at 10 µM: item CC(C)[C@H](NC(=O)OCc1ccccn1)C(=O)N[C@@H](Cc1ccccc1)[C@H](O)CNC[C@@H](O)[C@H](Cc1ccccc1)NC(=O)OC(C)(C)C , target or system HIV protease (Human immunodeficiency virus type 1 group M subtype B, UniProt P04585).
A: 100

Q: Requested read-out inhibition at 10 µM, target or system HIV protease (Human immunodeficiency virus type 1 group M subtype B, UniProt P04585), entry CC(C)(C)OC(=O)N[C@@H](Cc1ccccc1)[C@H](O)CNC[C@@H](O)[C@H](Cc1ccccc1)NC(=O)[C@@H](NC(=O)OCCOCc1ccccc1)C(C)(C)C
A: 99

Q: Request - read-out inhibition at 10 µM | tested on HIV protease (Human immunodeficiency virus type 1 group M subtype B, UniProt P04585) | compound CC(C)(C)OC(=O)N[C@@H](Cc1ccccc1)[C@H](O)CNC[C@@H](O)[C@H](CCc1ccccc1)NC(=O)OCc1ccccc1
A: 78

New cases:
Q: Which measured inhibition at 10 µM belongs to C[C@H](NC(=O)OCc1nc2ccccc2[nH]1)C(=O)N[C@@H](Cc1ccccc1)[C@H](O)CNC[C@@H](O)[C@H](Cc1ccccc1)NC(=O)OC(C)(C)C (relative stereo) , tested on HIV protease (Human immunodeficiency virus type 1 group M subtype B, UniProt P04585)?
A: 100

Q: Identify the measured inhibition at 10 µM of COC(=O)N[C@H](C(=O)N[C@@H](Cc1ccc(OCC(=O)N2CCOCC2)cc1)[C@H](O)CNC[C@@H](O)[C@H](Cc1ccccc1)NC(=O)OC(C)(C)C)C(C)(C)C (relative stereo) for HIV protease (Human immunodeficiency virus type 1 group M subtype B, UniProt P04585).
A: 99

Q: State its inhibition at 10 µM on HIV protease (Human immunodeficiency virus type 1 group M subtype B, UniProt P04585): CC(C)(C)OC(=O)N[C@@H](Cc1ccccc1)[C@H](O)CNC[C@@H](O)[C@H](Cc1ccccc1)NC(=O)C(C)(C)CCO
A: 73

Q: # value lookup — system HIV protease (Human immunodeficiency virus type 1 group M subtype B, UniProt P04585), readout inhibition at 10 µM, item CC(C)[C@H](NC(=O)[C@@H](N)Cc1ccccc1)C(=O)N[C@@H](Cc1ccccc1)[C@H](O)CNC[C@@H](O)[C@H](Cc1ccccc1)NC(=O)OC(C)(C)C
A: 99

Origin of measurements: patent US5760036A
